Reported glycan array binding signal (z-score) values for the following binders.
biological target: Gal(b1-4)GlcNAc(b1-2)[Gal(b1-4)GlcNAc(b1-6)]Man(a1-6)[Gal(b1-4)GlcNAc(b1-2)Man(a1-3)]Man(b1-4)GlcNAc(b1-4)[Fuc(a1-6)]GlcNAc; assay: glycan array binding signal (z-score within array); higher = stronger binding; settings: glycan notation: IUPAC condensed, linker removed
Only a selection was taken, and the strongest signals are over-represented in it overall.
test.readout: glycan array binding signal (z-score)

{"binder": "RBMC2 (Vibrio cholerae) (protein) KISVRSGFAIDAIGASASTLVGGTGGNLNAAVNVKDIKAIDLTWGKYYWGGYHLLALDFRMSNGSVISMGSKNYAYSKQTERFTVPAGSRIKGIKAWTAGWLLDGVQFELA", "test.readout": "glycan array binding signal (z-score)", "reported": 0.211}
{"binder": "AFCNVH (Aspergillus fumigatus) (protein) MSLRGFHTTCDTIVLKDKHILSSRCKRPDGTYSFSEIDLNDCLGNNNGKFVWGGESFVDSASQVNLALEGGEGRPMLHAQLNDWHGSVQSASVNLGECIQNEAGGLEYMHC", "test.readout": "glycan array binding signal (z-score)", "reported": -0.378}
{"binder": "Protein L(B1-B4) (Finegoldia magna), Q51912 (protein) KEETPETPETDSEEEVTIKANLIFANGSTQTAEFKGTFEKATSEAYAYADTLKKDNGEYTVDVADKGYTLNIKFAGKEKTPEEPKEEVTIKANLIYADGKTQTAEFKGTFEEATAEAYRYADALKKDNGEYTVDVADKGYTLNIKFAGKEKTPEEPKEEVTIKANLIYADGKTQTAEFKGTFEEATAEAYRYADLLAKENGKYTVDVADKGYTLNIKFAGKEKTPEEPKEEVTIKANLIYADGKTQTAEFKGTFAEATAEAYRYADLLAKENGKYTADLEDGGYTINIRFAG", "test.readout": "glycan array binding signal (z-score)", "reported": 2.92}
{"binder": "Epa3to1 (Candida glabrata) (protein) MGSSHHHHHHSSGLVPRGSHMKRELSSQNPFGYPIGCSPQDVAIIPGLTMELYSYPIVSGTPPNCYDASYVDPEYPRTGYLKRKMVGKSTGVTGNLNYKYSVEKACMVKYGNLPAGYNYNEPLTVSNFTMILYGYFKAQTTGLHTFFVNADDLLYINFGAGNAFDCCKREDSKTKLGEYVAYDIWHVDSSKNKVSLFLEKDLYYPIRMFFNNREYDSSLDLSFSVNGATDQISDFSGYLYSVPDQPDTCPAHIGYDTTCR", "test.readout": "glycan array binding signal (z-score)", "reported": 0.071}

Hey, just so you know, these numbers are from the supplement of paper PMC8728848.
